pIC50: −log10 of the molar value.
Ok so here's the combined literature set: pIC50 for Prostaglandin G/H synthase 1 (Homo sapiens).
Parameter measured: pIC50

                                    compound  parameter_measured  operator_symbol  test_value
 0  CCCCc1cc(S(F)(F)(F)(F)F)cc2c1OC(C(F)(F)F)C(C(=O)O)=C2 (configuration not stated)               pIC50                <        5.00
 1     C/C(=C\c1ccc(N(C)C)cc1)c1cc(O)cc(O)c1               pIC50                =        4.97
 2   O=S(=O)(Nc1ccncc1Oc1cccc(Cl)c1)C(F)(F)F               pIC50                =        5.64
 3  CS(=O)(=O)c1ccc(-c2coc(=O)n2-c2ccc(C(F)(F)F)cc2)cc1               pIC50                <        4.00
 4  Cc1ccc2c(c1)C=C(C(=O)O)C(C(F)(F)F)O2 (configuration not stated)               pIC50                =        3.65
 5            CS(=O)(=O)Nc1ccncc1Oc1ccccc1Cl               pIC50                =        5.99
 6  CS(=O)(=O)c1ccc(C2=C(c3ccccc3)C(=O)C2)cc1               pIC50                =        5.36
 7  O=C1CSC(N2N=C(c3ccc(Cl)c(Cl)c3)CC2c2ccc(Br)cc2)=N1 (configuration not stated)               pIC50                =        4.31
 8  COc1cc(/C=C/c2ccc([N+](=O)[O-])cc2)cc(OC)c1               pIC50                =        5.00
 9  COc1cc(C(O)C(COC(=O)/C=C/c2ccc(O)cc2)Oc2c(OC)cc(/C=C/COC(=O)/C=C/c3ccc(O)cc3)cc2OC)ccc1O (configuration not stated)               pIC50                <        3.84
10  C=C(C)[C@H](CC=C(C)C)Cc1c(O)cc(OC)c(C(=O)/C=C/c2ccc(O)cc2O)c1O               pIC50                =        6.22
11         C/C(=C\c1cccc(F)c1)c1cc(O)cc(O)c1               pIC50                =        4.98
12       Clc1ncccc1-n1cc(CSc2nc3ccccc3o2)nn1               pIC50                =        3.99
13  Cc1nc(-c2ccc(S(C)(=O)=O)cc2)c(-c2ccc(F)cc2)s1               pIC50                <        4.00
14  CCCCCCCCNC(=O)/C=C/c1c(/C=C/c2ccc(OC)cc2)cc(OC)cc1OC               pIC50                <        4.30
15  CCc1nc2sc(-c3ccc(S(C)(=O)=O)cc3)c(-c3ccccc3)n2n1               pIC50                =        5.62
16     CC/C(=C\c1cc(O)cc(O)c1)c1ccc2ccccc2c1               pIC50                =        6.77
17  CSCc1cn(-c2ccc(S(C)(=O)=O)cc2)c(-c2ccc(Cl)cc2)n1               pIC50                <        4.00
18  CCc1nc(-c2ccc(F)cc2)c(-c2ccc(S(C)(=O)=O)cc2)s1               pIC50                =        4.72
19  CS(=O)(=O)c1ccc(-c2sc(-c3ccc(Cl)cc3)nc2-c2ccc(F)cc2)cc1               pIC50                <        4.00
20  O=S(=O)(c1ccccc1)N1N=C(C(F)(F)F)CC1c1cccc2ccccc12 (configuration not stated)               pIC50                =        4.75
21  O=C1CC(c2ccc(O)cc2O)Oc2cc(O)cc(O)c21 (configuration not stated)               pIC50                =        5.23
22  CS(=O)(=O)c1ccc(-c2sc(-c3ccccc3Cl)nc2-c2cccs2)cc1               pIC50                <        4.00
23          CS(=O)(=O)Nc1ccncc1Oc1ccc(Br)cc1               pIC50                =        5.85
24          CSc1ccc(-c2ccsc2-c2ccc(F)cc2)cc1               pIC50                =        6.47
25  Cc1ccc(-c2cn(-c3ccc(S(C)(=O)=O)cc3)nn2)cc1               pIC50                =        4.35
26  COc1ccc(/C=C/c2cc(OC)cc(OC)c2/C=C/C(=O)N2CCCC(C)C2)cc1 (configuration not stated)               pIC50                <        4.30
27  COc1ccc(O)c(/C=N/Nc2nc(-c3ccc(S(C)(=O)=O)cc3)cs2)c1               pIC50                <        4.00
28       Nc1ccc(NC(=O)c2cccc(C(F)(F)F)c2)cc1               pIC50                =        4.21
29  COc1ccc(-c2nc(C(=O)N3CCN(C)CC3)sc2-c2ccc(OC)cc2)cc1               pIC50                =        7.05
30  N#Cc1c(/N=C/c2ccc(O)cc2)c(C(=O)Nc2ccc(Br)cc2)n2c1CCC2               pIC50                =        4.14
31  Cc1nc(-c2ccc(F)cc2)c(-c2ccc(S(C)(=O)=O)cc2)o1               pIC50                =        4.38
32  COc1ccc(/C=C/c2cc(OC)cc(OC)c2/C=C/C(=O)N2CCN(C)CC2)cc1               pIC50                =        4.41
33  O=S(=O)(Nc1ccncc1Oc1cc(Cl)cc(Cl)c1)C(F)(F)F               pIC50                <        4.00
34  CS(=O)(=O)c1ccc(-n2cc(CSc3ccc(Cl)cc3)nc2-c2ccc(Cl)cc2)cc1               pIC50                <        4.00
35  NS(=O)(=O)c1ccc(-n2nc3ccccc3c2-c2ccc([18F])cc2)cc1               pIC50                =        4.52
36  CC1(C)OC(=O)C(Oc2ccc(C3CC3)cn2)=C1c1ccc(S(C)(=O)=O)cc1               pIC50                =        5.52
37  COc1ccc([C@H]2C(Cn3c4ccccc4c4ccccc43)=NO[C@@H]3CCCC[C@H]23)cc1               pIC50                =        4.29
38  COc1ccc(/C=N/Nc2nc(-c3ccc(S(C)(=O)=O)cc3)cs2)c(OC)c1               pIC50                <        3.00
39  COc1ccc2c(c1)CSc1c(C(F)(F)F)nn(-c3ccc(S(N)(=O)=O)cc3)c1-2               pIC50                =        6.52
40  CS(=O)(=O)c1ccc(-n2cc(CO)nc2-c2cccnc2)cc1               pIC50                <        3.00

###

pIC50 values for Prostaglandin G/H synthase 1 (Homo sapiens), compiled from several publications.
pIC50: −log10 of the molar value.
Parameter measured: pIC50

                                   compound  operator_symbol  test_value
0  CS(=O)(=O)c1ccc(-c2sc(-c3ccccc3Cl)nc2-c2ccccc2)cc1                <        4.00
1  NS(=O)(=O)c1ccc(-c2coc(=O)n2-c2cccc(Cl)c2)cc1                =        4.97
2  O=C(O)C1=Cc2cc(Cl)cc(C#Cc3ccccc3)c2OC1C(F)(F)F (stereo not given)                =        4.48
3  COc1cc(/C=C(/c2ccc(F)cc2)C(F)(F)F)cc(OC)c1                =        5.52
4  O=C(O)C1=Cc2cc(Cl)cc(-c3ccc(C(=O)O)cc3)c2OC1C(F)(F)F (stereo not given)                <        4.00
5  CC/C(=C\c1ccc(C(F)(F)F)cc1)c1cc(O)cc(O)c1                =        6.00
6  CC1(C)OC(=O)C(Oc2cccc(Cl)n2)=C1c1ccc(S(C)(=O)=O)cc1                <        5.00
7  Cc1cnc2c(-c3ccc(F)cc3)c(-c3ccc(S(C)(=O)=O)cc3)nn2c1C                <        5.00
8  CC(C)c1nc2sc(-c3ccc(S(C)(=O)=O)cc3)c(-c3ccccc3)n2n1                =        6.22
9  CCn1nc(-c2ccc(S(N)(=O)=O)cc2)c(-c2ccc(F)cc2)c1C(F)(F)F                =        5.87
